The measurements presented in this section are drawn from patent US20240255522A1.

molecular target: HLA-DRB1*09:01 MHCII molecule (human); assay: saturation binding ELISA; pH 5
pKd: −log10 of the molar value. Where no end group is shown, it is not given here.

| Binder | pKd |
| --- | --- |
| PVSKMRMATPLLMQA (also: biotinylated, position not given here) [biotinylated high affinity huCLIP] | 6.42 |
